# credit: patent US20240190987A1

experiment: Differential scanning fluorimetry (DSF) melting temperature; type: physicochemical; details: thermostability by DSF; Table 26
parameter.measured: TM (° C.)

Qu. Bench note: what TM (° C.) did Ab1066: anti-EpCAM binding domain, FIGS. 8A-8C (antibody, V domains shown) VH: EVQLVESGGGLVQPGGSLRLSCAASGFTFSNYWMNWVRQAPGKGLEWVAQIRVKSENFATHYADSVKGRFTISRDDSKSTVYLQMNSLRAEDTAVYYCTLYDAFSWGQGTLVTVSS VL: DIQMTQSPSSLSASVGDRVTITCSASSSVSSGNFHWYQQKPGKAPKLLIYRTSNLASGVPSRFSGSGSGTDYTLTISSLQPEDFATYYCQQASGYPYTFGQGTKVEIK show?
Ans. 70.4 °C
